- Assay target: T1, cruzipain (Trypanosoma cruzi, UniProt P25779 123-467)
- T1 construct: also called T. cruzi CP cruzipain; major cysteine peptidase of T. cruzi
- T1 sequence (P25779 123-467): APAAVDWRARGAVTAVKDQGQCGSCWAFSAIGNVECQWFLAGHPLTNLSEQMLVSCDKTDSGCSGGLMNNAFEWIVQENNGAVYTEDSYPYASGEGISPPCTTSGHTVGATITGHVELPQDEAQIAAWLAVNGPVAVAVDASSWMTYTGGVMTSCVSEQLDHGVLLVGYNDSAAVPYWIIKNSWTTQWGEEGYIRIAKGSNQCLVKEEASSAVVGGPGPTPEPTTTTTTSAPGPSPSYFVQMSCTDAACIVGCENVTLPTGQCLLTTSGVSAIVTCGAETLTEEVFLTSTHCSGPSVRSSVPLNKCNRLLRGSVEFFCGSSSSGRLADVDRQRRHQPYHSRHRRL
- Assay name: enzyme inhibition kinetics (Ki for tight-binding inhibitors); peptidase incubated with different chagasin concentrations for 15 min at room temperature, residual hydrolysis of 5 μM Z-Phe-Arg-MCA; Ki from Kiapp with KM 1.5, 2.5 and 60 μM for cruzipain, cathepsin L and papain; methods: RB buffer (50 mM Na2PO4, pH 6.5, 200 mM NaCl, 5 mM EDTA, 2.5 mM DTT), 25 °C; footnote of Table 2: 50 mM Na2HPO4, 100 mM NaCl, 5 mM …
- Study conditions: both partners purified
Give pKi for every item shown.
Give bare numbers, as −log10 of the molar value.

Record excerpt, results attached:
chagasin T32V (natural protein, pQE30 construct as m1; also called pGL1196; source: E. coli M15/pRep4, purified (Ni metal chelate column, HQ ion exchange)) MSHKVTKAHNGATLTVAVGELVEIQLPSNPTVGFAWYFEGGTKESPNESMFTVENKYFPPDSKLLGAGGTEHFHVTVKAAGTHAVNLTYMRPWTGPSHDSERFTVYLKAN
9.71
chagasin ΔT31–T32 (devoid of residues T31 and T32) (natural protein, source: E. coli M15/pRep4, purified (Ni metal chelate column, HQ ion exchange)) MSHKVTKAHNGATLTVAVGELVEIQLPSNPGFAWYFEGGTKESPNESMFTVENKYFPPDSKLLGAGGTEHFHVTVKAAGTHAVNLTYMRPWTGPSHDSERFTVYLKAN
8.23

Give one value of pKi per listed binder.
1. chagasin T31A (natural protein, pQE30 construct as m1; also called pGL1209; source: E. coli M15/pRep4, purified (Ni metal chelate column, HQ ion exchange)) MSHKVTKAHNGATLTVAVGELVEIQLPSNPATGFAWYFEGGTKESPNESMFTVENKYFPPDSKLLGAGGTEHFHVTVKAAGTHAVNLTYMRPWTGPSHDSERFTVYLKAN
2. chagasin Y89S (natural protein, pQE30 construct as m1; also called pGL1120; source: E. coli M15/pRep4, purified (Ni metal chelate column, HQ ion exchange)) MSHKVTKAHNGATLTVAVGELVEIQLPSNPTTGFAWYFEGGTKESPNESMFTVENKYFPPDSKLLGAGGTEHFHVTVKAAGTHAVNLTSMRPWTGPSHDSERFTVYLKAN

Result:
1: 9.50; 2: 10.60
